TGT: 5-hydroxytryptamine receptor 2A (Rattus norvegicus, UniProt P14842)
Sequence (P14842 whole entry): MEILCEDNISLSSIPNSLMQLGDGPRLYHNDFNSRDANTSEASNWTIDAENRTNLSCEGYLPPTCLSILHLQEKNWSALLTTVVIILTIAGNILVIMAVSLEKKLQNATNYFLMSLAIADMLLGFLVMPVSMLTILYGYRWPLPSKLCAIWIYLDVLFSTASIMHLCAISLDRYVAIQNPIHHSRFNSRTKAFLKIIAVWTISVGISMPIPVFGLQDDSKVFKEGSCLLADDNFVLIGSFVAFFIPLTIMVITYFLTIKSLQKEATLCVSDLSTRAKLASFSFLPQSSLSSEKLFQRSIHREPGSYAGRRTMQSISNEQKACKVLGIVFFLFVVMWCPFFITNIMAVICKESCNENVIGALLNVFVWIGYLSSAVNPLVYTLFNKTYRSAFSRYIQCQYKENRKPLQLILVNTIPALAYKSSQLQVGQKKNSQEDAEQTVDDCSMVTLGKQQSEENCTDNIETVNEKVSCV
# note: boundary value 0.7 nM maps to 0.0; IC50 below it maps to 1.0

These recorded examples may help you get a feel for the data.
MOLECULE | ASSIGNED LABEL
COC(=O)c1c2c(c(C[C@@H](C)N)c3c1OCC3)OCC2 | 0.0
COCc1c2ccoc2c(C[C@@H](C)N)c2ccoc12 | 1.0
C[C@@H](N)[C@@H](O)c1c2c(c(Br)c3c1OCC3)OCC2 (racemic) | 0.0
Cc1noc(Cc2c3ccoc3c(C[C@@H](C)N)c3ccoc23)n1 | 1.0
C[C@@H](N)Cc1c2c(c(CO)c3c1OCC3)OCC2 | 0.0
C[C@@H](N)Cc1c2ccoc2c(CO)c2ccoc12 | 1.0

Kindly review the next molecule as well.
Incoming: Quick check: IC50 of Cc1noc(-c2c3c(c(C[C@@H](C)N)c4c2OCC4)OCC3)n1 under 0.7 nM?
Outgoing: 0.0

* * *

TGT: 5-hydroxytryptamine receptor 2C (Rattus norvegicus)
PROCEDURE DETAILS: Agonist activity at 5HT2C receptor expressed in […] cells assessed as intracellular calcium mobilization
Format: functional, cell-based
Would you mind telling me the reported Emax of each entry?
Numbers only, in %.

# annotated cases, reported Emax shown
STRUCTURE SMILES | TGT | MEASUREMENT
COCc1c2c(c(C[C@@H](C)N)c3c1OCC3)OCC2 | 5-hydroxytryptamine receptor 2C (Rattus norvegicus) | 99
C[C@@H](N)[C@H](O)c1c2c(c(Br)c3c1OCC3)OCC2 | 5-hydroxytryptamine receptor 2C (Rattus norvegicus) | 100
COCCOCc1c2c(c(C[C@@H](C)N)c3c1OCC3)OCC2 | 5-hydroxytryptamine receptor 2C (Rattus norvegicus) | 93
Cc1noc(Cc2c3c(c(C[C@@H](C)N)c4c2OCC4)OCC3)n1 | 5-hydroxytryptamine receptor 2C (Rattus norvegicus) | 69

Incoming: Which Emax value is on record for Cc1noc(Cc2c3ccoc3c(C[C@@H](C)N)c3ccoc23)n1 ?
Outgoing: 95

* * *

TGT: UniProt:P14842
PROCEDURE DETAILS: Agonist activity at 5HT2A receptor in rat A7r5 cells assessed as intracellular calcium mobilization relative to 5HT
Type: functional, cell-based
Mark Not satisfied for Emax values under 40%, and Satisfied for everything at or above.

MOLECULE | ASSIGNED LABEL
Cc1noc(-c2c3c(c(C[C@@H](C)N)c4c2OCC4)OCC3)n1 | Not satisfied
Cc1noc(CCc2c3c(c(C[C@@H](C)N)c4c2OCC4)OCC3)n1 | Not satisfied
C[C@@H](N)Cc1c2c(c(CO)c3c1OCC3)OCC2 | Satisfied

Incoming: Decide: is the reported value of Emax for COCc1c2ccoc2c(C[C@@H](C)N)c2ccoc12 equal to or greater than 40%?
Outgoing: Satisfied

Incoming: For C[C@@H](N)[C@@H](O)c1c2c(c(Br)c3c1OCC3)OCC2 (racemic) then?
Outgoing: Satisfied

Incoming: For CC(N)Cc1c2c(c(Br)c3c1OCC3)OCC2 (configuration not stated) then?
Outgoing: Satisfied

* * *

TGT: 5-hydroxytryptamine receptor 2A (Rattus norvegicus) (UniProt P14842)
Sequence (P14842 whole entry): as above
PROCEDURE DETAILS: Agonist activity at 5HT2A receptor in rat A7r5 cells assessed as intracellular calcium mobilization
Type: functional, cell-based
Mark Condition not met for Emax values under 50%, and Condition met for everything at or above.

Incoming: Decide: is the reported value of Emax for Cc1noc(Cc2c3ccoc3c(C[C@@H](C)N)c3ccoc23)n1 equal to or greater than 50%?
Outgoing: Condition met
